The values you see were collected from patent US12643910B2.

Molecular target: human ENPP1 (Homo sapiens, UniProt P22413)
Construct: made in house
Sequence (P22413 1-925): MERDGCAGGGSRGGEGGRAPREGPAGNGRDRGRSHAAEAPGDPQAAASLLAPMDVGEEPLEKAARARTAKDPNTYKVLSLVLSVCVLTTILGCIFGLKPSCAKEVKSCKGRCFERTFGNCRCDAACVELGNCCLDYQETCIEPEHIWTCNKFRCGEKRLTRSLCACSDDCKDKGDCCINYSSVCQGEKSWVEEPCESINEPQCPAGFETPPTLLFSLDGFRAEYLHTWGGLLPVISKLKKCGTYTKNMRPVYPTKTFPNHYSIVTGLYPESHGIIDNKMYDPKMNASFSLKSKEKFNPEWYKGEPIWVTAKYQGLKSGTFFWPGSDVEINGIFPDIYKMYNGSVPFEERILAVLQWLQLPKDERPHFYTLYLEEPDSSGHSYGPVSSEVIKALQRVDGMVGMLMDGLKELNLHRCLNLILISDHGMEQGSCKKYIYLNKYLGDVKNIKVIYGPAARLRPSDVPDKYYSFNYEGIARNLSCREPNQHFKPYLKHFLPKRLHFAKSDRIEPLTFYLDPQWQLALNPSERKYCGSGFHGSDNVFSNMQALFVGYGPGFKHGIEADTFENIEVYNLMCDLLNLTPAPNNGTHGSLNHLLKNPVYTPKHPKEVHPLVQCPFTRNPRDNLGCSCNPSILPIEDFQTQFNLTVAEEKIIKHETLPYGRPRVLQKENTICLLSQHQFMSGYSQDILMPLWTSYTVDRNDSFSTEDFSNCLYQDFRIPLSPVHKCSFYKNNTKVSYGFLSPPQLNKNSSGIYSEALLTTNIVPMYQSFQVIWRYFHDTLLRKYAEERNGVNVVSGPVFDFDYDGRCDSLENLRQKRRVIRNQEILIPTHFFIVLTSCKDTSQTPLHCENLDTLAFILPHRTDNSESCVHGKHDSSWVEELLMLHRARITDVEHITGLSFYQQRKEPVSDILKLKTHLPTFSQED
Experiment: ENPP1 assay with ATP substrate (Transcreener AMP2/GMP2 TR-FRET)
Assay type: biochemical
Settings: 1 hour at room temperature
Text: Example B1: ENPP1 Assay with ATP Substrate Ectonucleotide pyrophosphatase/phosphodiesterase 1 (ENPP1) hydrolyzes ATP, breaking it down into 5′-AMP and pyrophosphate. The 5′-AMP formed from the reaction is detected by Transcreener® AMP2/GMP2 TR-FRET Assay (Bellbrook), containing AMP-tracer (HiLyte 647) and anti-AMP Terbium (Tb) donor. 5′-AMP generated in the reaction competes with AMP-tracer for binding with Anti-AMP Tb donor, and decreases TR-FRET signal. […]
Quantity Kind: IC50

{"Compound": "CN1CCN(c2nc(N3CCC(NCCCc4ccncc4)CC3)c3cnn(C)c3n2)CC1 [Example 2.6]", "Tested Target": "human ENPP1 (Homo sapiens, UniProt P22413)", "Quantity Kind": "IC50", "Endpoint Result": "> 20 µM"}
{"Compound": "Cn1ncc(CNc2nc(-c3ccccn3)nc3scc(-c4ccccc4)c23)c1N [Example 1.34]", "Tested Target": "human ENPP1 (Homo sapiens, UniProt P22413)", "Quantity Kind": "IC50", "Endpoint Result": "1 to 20 µM"}
{"Compound": "Cn1ncc2c(NCc3ccc(S(N)(=O)=O)cc3)nccc21 [Example 2.66]", "Tested Target": "human ENPP1 (Homo sapiens, UniProt P22413)", "Quantity Kind": "IC50", "Endpoint Result": "1 to 20 µM"}
{"Compound": "Cc1csc2c(N3CCC(Nc4ccncc4)CC3)ncnc12 [Example 3.24]", "Tested Target": "human ENPP1 (Homo sapiens, UniProt P22413)", "Quantity Kind": "IC50", "Endpoint Result": "1 to 20 µM"}
{"Compound": "CCCCNc1cc(NCc2ccc(S(N)(=O)=O)cc2)c2cnn(C)c2n1 [Example 2.80]", "Tested Target": "human ENPP1 (Homo sapiens, UniProt P22413)", "Quantity Kind": "IC50", "Endpoint Result": "1 to 20 µM"}

// next item, IC50 requested
Please fill in: IC50 reported for Cn1ncc2c(NCc3ccc(S(N)(=O)=O)cc3)nc(C(F)(F)F)nc21 [Example 2.133] = 1 to 20 µM
